meta.source: patent US20230203155A1

Items are presented alongside their recorded koff.
molecular target: T1, human ROR1-hFc fusion protein (extracellular domain) (human); assay: SPR, ROR1-hFc on chip
T1 construct: Whole entry 'human ROR1-Fc (CHO)'; also called hROR1; huROR1-Fc
T1 sequence (chain, as listed by the source limits assumed): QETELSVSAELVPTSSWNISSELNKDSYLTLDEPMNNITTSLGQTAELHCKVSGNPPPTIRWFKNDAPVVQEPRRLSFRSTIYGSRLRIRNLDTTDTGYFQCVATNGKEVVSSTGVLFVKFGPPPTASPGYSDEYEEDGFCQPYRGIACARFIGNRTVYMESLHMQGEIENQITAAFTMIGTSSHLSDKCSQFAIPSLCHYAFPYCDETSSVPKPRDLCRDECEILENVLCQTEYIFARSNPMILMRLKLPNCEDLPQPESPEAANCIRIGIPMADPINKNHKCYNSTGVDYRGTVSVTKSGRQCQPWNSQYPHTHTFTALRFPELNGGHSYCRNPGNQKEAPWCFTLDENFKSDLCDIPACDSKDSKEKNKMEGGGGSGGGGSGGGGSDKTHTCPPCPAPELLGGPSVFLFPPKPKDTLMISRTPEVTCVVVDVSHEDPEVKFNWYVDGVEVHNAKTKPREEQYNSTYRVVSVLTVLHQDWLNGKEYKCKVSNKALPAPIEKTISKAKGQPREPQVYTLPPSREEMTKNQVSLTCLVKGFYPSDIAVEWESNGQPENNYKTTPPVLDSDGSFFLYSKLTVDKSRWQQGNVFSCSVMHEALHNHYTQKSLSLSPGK
// note: answer is a bare numeric in s⁻¹

binder	units	value
P3A1-P3A1-Ox-vcMMAE (VNAR, C-terminal aminoxy oxime-linked to benzaldehyde PEG2 vc PAB MMAE) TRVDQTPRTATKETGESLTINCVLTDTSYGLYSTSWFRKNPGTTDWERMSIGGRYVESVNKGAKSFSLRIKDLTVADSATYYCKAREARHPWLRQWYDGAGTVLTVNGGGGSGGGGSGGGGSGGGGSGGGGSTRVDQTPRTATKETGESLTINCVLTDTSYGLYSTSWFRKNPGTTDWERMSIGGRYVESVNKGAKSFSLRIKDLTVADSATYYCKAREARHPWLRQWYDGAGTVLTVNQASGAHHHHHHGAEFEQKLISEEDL	s⁻¹	0.00277
P3A1-[G4S]5-P3A1 his myc (VNAR, VNAR homodimer by genetic fusion; also called P3A1-P3A1; P3A1 dimer) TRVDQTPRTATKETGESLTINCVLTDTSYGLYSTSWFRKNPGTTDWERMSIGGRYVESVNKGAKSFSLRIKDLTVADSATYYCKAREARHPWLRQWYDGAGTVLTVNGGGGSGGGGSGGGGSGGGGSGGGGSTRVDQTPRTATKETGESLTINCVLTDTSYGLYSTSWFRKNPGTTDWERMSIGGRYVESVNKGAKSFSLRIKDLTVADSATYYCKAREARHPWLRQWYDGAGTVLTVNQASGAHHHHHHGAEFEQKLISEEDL	s⁻¹	0.00296
P3A1-P3A1-Ox-MMAE (VNAR, C-terminal aminoxy oxime-linked to benzaldehyde PEG4 MMAE) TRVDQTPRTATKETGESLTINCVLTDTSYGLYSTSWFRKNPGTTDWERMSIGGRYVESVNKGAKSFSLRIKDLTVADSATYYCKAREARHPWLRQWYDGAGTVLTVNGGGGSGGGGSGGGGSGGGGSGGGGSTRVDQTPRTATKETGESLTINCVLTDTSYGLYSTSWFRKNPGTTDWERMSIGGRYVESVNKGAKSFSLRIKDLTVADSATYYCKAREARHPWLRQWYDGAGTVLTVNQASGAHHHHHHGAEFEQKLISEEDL	s⁻¹	0.0032

Task: Can you look up the measured koff of P3A1-P3A1-S-mal-vcMMAE (VNAR, C-terminal thiol conjugated to MC vc PAB MMAE) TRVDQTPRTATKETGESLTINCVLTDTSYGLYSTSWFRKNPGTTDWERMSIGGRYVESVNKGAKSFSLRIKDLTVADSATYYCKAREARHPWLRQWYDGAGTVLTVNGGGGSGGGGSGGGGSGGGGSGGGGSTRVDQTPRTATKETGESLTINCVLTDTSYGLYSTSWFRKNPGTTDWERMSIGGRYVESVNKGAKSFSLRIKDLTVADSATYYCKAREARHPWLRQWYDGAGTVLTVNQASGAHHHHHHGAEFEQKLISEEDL for me?
Result: 0.0026
